system: ATP; test: switch fluorescence ratio, 500 uM ATP over buffer (Cy3 cluster intensity, sum of 5 cycles each) (fold (ratio)); higher = stronger signal-on switching upon ATP binding; sequences stand for … in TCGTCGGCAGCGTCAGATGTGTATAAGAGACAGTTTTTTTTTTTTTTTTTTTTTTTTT…TC; conditions: aptamer strand: ATP DNA aptamer (quencher-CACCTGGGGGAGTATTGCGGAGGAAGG + anchor), 100 nM annealed; ATP concentration: 500 uM;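 also: ATP exposure 15 min at 22 °C before imaging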
For each entry below, report its switch fluorescence ratio value.
One number for each entry.

Worked cases, answers included:
>  <CONSTRUCT SEQUENCE>
TTTTTCTATA

>  <QUANTITY NAME>
switch fluorescence ratio

>  <RESULT VALUE>
0.994

$$$$
>  <CONSTRUCT SEQUENCE>
AGTGGGAGTT

>  <QUANTITY NAME>
switch fluorescence ratio

>  <RESULT VALUE>
1

$$$$
>  <CONSTRUCT SEQUENCE>
CAGTTGGTC

>  <QUANTITY NAME>
switch fluorescence ratio

>  <RESULT VALUE>
0.995

$$$$
>  <CONSTRUCT SEQUENCE>
TGCTCTACGG

>  <QUANTITY NAME>
switch fluorescence ratio

>  <RESULT VALUE>
1

$$$$
>  <CONSTRUCT SEQUENCE>
GGGATATGTA

>  <QUANTITY NAME>
switch fluorescence ratio

>  <RESULT VALUE>
1.01

$$$$
>  <CONSTRUCT SEQUENCE>
TAAAGCTAGG

>  <QUANTITY NAME>
switch fluorescence ratio

>  <RESULT VALUE>
0.995

$$$$
>  <CONSTRUCT SEQUENCE>
TCAAACGAC

>  <QUANTITY NAME>
switch fluorescence ratio

>  <RESULT VALUE>
1.08

$$$$
>  <CONSTRUCT SEQUENCE>
AAAATAGGGA

>  <QUANTITY NAME>
switch fluorescence ratio

>  <RESULT VALUE>
0.989

$$$$

Please state, for each entry, its recorded switch fluorescence ratio.
1. ATTGGGTGTT
2. GCATTGTAGG
3. TTTTGGCTTA
4. AATGATGTAC

1. 1.02
2. 0.972
3. 0.995
4. 1.05

Parameter requested: switch fluorescence ratio. Apply to each item below.
1. TTGATCTGTT
2. CTTAGCTAGA
3. ATCATGTGTT

[0.972, 1.04, 0.994]
